Each entry below lists one item and its recorded BUN value.
Assay: Tolerability in CD1 mice: kidney function, BUN, creatinine (Example 33)
Settings: plasma, 50 mg/kg s.c. twice a week, 6 weeks
# unit: mg/dL | format: bare number

Worked examples follow.
{"substance": "ISIS 416864: MOE gapmer, nucleobases 1275 to 1318 of SEQ ID NO: 1 (Table 8) (antisense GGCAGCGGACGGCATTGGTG; MOE gapmer, wing and gap sizes not given here)", "unit_string": "mg/dL", "BUN": 28}
{"substance": "ISIS 417002: MOE gapmer, nucleobases 1275 to 1318 of SEQ ID NO: 1 (Table 8) (antisense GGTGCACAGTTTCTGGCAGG; MOE gapmer, wing and gap sizes not given here)", "unit_string": "mg/dL", "BUN": 19}
{"substance": "ISIS 416858: MOE gapmer, nucleobases 1275 to 1318 of SEQ ID NO: 1 (Table 8) (antisense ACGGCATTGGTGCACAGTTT; MOE gapmer, wing and gap sizes not given here)", "unit_string": "mg/dL", "BUN": 19}
{"substance": "ISIS 416850: MOE gapmer, nucleobases 1275 to 1318 of SEQ ID NO: 1 (Table 8) (antisense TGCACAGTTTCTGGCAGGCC; MOE gapmer, wing and gap sizes not given here)", "unit_string": "mg/dL", "BUN": 23}

With those in mind, consider the next substance.
Ask: Any idea what BUN was measured for ISIS 416838: MOE gapmer, nucleobases 1018 to 1042 of SEQ ID NO: 1 (Table 6) (antisense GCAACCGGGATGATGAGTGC; MOE gapmer, wing and gap sizes not given here) ?
Result: 30

----------
Conditions: mouse, in vivo, sc, 50 mg/kg
e = 2'-O-(2-methoxyethyl) (MOE); d = 2'-deoxy (DNA)
recorded_endpoint: WBC

Worked examples follow.
{"substance": "ISIS 416848: MOE gapmer, nucleobases 1275 to 1318 of SEQ ID NO: 1 (Table 8) (antisense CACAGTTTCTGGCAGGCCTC; MOE gapmer, wing and gap sizes not given here)", "result": "7 10^3/μL"}
{"substance": "ISIS 416863: MOE gapmer, nucleobases 1275 to 1318 of SEQ ID NO: 1 (Table 8) (antisense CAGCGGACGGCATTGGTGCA; MOE gapmer, wing and gap sizes not given here)", "result": "7 10^3/μL"}
{"substance": "ISIS 416865: MOE gapmer, nucleobases 1275 to 1318 of SEQ ID NO: 1 (Table 8) (antisense TGGCAGCGGACGGCATTGGT; MOE gapmer, wing and gap sizes not given here)", "result": "7 10^3/μL"}
{"substance": "ISIS 416866: MOE gapmer, nucleobases 1275 to 1318 of SEQ ID NO: 1 (Table 8) (antisense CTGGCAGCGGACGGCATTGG; MOE gapmer, wing and gap sizes not given here)", "result": "6 10^3/μL"}

Ask: Any idea what WBC was measured for ISIS 416858: MOE gapmer, nucleobases 1275 to 1318 of SEQ ID NO: 1 (Table 8) (antisense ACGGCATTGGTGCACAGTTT; MOE gapmer, wing and gap sizes not given here) ?
Result: 8 10^3/μL

Ask: Any idea what WBC was measured for ISIS 416851: MOE gapmer, nucleobases 1275 to 1318 of SEQ ID NO: 1 (Table 8) (antisense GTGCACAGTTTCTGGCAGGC; MOE gapmer, wing and gap sizes not given here) ?
Result: 6 10^3/μL

Ask: Any idea what WBC was measured for ISIS 416850: MOE gapmer, nucleobases 1275 to 1318 of SEQ ID NO: 1 (Table 8) (antisense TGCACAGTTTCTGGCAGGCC; MOE gapmer, wing and gap sizes not given here) ?
Result: 5 10^3/μL

Ask: Any idea what WBC was measured for ISIS 416855: MOE gapmer, nucleobases 1275 to 1318 of SEQ ID NO: 1 (Table 8) (antisense CATTGGTGCACAGTTTCTGG; MOE gapmer, wing and gap sizes not given here) ?
Result: 6 10^3/μL

Ask: Any idea what WBC was measured for ISIS 416864: MOE gapmer, nucleobases 1275 to 1318 of SEQ ID NO: 1 (Table 8) (antisense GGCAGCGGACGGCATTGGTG; MOE gapmer, wing and gap sizes not given here) ?
Result: 5 10^3/μL

Ask: Any idea what WBC was measured for ISIS 413482: 5-10-5 MOE gapmer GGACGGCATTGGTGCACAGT (sugars from the 5' end e5 d10 e5, backbone and methylation of C not given here) ?
Result: 8 10^3/μL

Ask: Any idea what WBC was measured for ISIS 412225: 5-10-5 MOE gapmer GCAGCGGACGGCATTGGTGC (sugars from the 5' end e5 d10 e5, backbone and methylation of C not given here) ?
Result: 7 10^3/μL

Ask: Any idea what WBC was measured for ISIS 412223: 5-10-5 MOE gapmer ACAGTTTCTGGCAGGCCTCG (sugars from the 5' end e5 d10 e5, backbone and methylation of C not given here) ?
Result: 7 10^3/μL

Ask: Any idea what WBC was measured for ISIS 416861: MOE gapmer, nucleobases 1275 to 1318 of SEQ ID NO: 1 (Table 8) (antisense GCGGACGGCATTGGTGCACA; MOE gapmer, wing and gap sizes not given here) ?
Result: 7 10^3/μL

Ask: Any idea what WBC was measured for ISIS 416860: MOE gapmer, nucleobases 1275 to 1318 of SEQ ID NO: 1 (Table 8) (antisense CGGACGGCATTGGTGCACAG; MOE gapmer, wing and gap sizes not given here) ?
Result: 7 10^3/μL

Ask: Any idea what WBC was measured for ISIS 416867: MOE gapmer, nucleobases 1275 to 1318 of SEQ ID NO: 1 (Table 8) (antisense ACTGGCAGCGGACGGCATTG; MOE gapmer, wing and gap sizes not given here) ?
Result: 8 10^3/μL

Ask: Any idea what WBC was measured for ISIS 416857: MOE gapmer, nucleobases 1275 to 1318 of SEQ ID NO: 1 (Table 8) (antisense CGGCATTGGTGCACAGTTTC; MOE gapmer, wing and gap sizes not given here) ?
Result: 6 10^3/μL

Ask: Any idea what WBC was measured for ISIS 413481: 5-10-5 MOE gapmer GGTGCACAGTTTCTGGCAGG (sugars from the 5' end e5 d10 e5, backbone and methylation of C not given here) ?
Result: 7 10^3/μL

Ask: Any idea what WBC was measured for ISIS 416862: MOE gapmer, nucleobases 1275 to 1318 of SEQ ID NO: 1 (Table 8) (antisense AGCGGACGGCATTGGTGCAC; MOE gapmer, wing and gap sizes not given here) ?
Result: 6 10^3/μL
